- tgt: Potassium Channel hERG (Homo sapiens, UniProt Q12809)
- Sequence (Q12809 whole entry): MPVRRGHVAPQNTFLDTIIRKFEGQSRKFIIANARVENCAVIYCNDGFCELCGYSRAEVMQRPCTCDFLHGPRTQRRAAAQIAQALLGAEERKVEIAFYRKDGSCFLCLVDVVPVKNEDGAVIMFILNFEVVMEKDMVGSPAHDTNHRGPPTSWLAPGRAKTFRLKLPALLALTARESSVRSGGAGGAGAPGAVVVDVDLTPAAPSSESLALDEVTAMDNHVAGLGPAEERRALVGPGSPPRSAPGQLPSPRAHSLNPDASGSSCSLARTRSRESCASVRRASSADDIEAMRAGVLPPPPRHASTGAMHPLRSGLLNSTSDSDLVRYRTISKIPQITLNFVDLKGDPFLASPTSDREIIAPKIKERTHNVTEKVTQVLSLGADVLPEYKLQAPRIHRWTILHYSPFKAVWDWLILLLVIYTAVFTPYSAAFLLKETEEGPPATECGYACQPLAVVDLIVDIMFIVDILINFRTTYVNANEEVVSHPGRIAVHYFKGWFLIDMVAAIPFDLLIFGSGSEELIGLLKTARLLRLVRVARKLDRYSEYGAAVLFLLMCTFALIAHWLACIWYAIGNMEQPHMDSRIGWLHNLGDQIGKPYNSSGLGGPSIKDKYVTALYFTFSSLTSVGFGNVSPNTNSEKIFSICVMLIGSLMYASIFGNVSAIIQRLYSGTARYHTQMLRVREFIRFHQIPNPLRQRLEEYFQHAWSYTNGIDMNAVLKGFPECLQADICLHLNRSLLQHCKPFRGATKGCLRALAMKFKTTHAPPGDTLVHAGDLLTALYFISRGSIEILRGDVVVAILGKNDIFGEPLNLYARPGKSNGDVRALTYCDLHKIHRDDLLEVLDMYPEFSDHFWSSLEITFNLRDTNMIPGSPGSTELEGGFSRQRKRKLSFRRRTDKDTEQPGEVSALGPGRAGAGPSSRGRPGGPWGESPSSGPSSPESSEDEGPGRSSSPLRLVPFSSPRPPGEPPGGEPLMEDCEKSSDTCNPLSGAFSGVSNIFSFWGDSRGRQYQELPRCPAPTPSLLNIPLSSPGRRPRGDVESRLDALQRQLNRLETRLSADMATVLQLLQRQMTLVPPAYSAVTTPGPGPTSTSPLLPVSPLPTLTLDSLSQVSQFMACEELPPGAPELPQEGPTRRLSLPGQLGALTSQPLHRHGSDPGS
endpoint label: activity at 10 µM (%)

[[record]]
structure = "CC1(C)C(/C=C/C2=C(Oc3ccc(CCC(=O)NCCCC[C@@H]4NC(=O)[C@@H](Cc5ccc(O)cc5)NC(=O)[C@H](CC(=O)O)NC(=O)CNC(=O)[C@H](CCCNC(=N)N)NC4=O)cc3)C(=C/C=C3/N(CCC[N+](C)(C)C)c4ccc(S(=O)(=O)O)cc4C3(C)C)/CCC2)=[N+](CCC[N+](C)(C)C)c2ccc(S(=O)(=O)O)cc21"
quantitative_result = 106


---

- tgt: 5-hydroxytryptamine (serotonin) receptor 2B (5-HT2B) (Homo sapiens, UniProt P41595)
- Sequence (P41595 whole entry): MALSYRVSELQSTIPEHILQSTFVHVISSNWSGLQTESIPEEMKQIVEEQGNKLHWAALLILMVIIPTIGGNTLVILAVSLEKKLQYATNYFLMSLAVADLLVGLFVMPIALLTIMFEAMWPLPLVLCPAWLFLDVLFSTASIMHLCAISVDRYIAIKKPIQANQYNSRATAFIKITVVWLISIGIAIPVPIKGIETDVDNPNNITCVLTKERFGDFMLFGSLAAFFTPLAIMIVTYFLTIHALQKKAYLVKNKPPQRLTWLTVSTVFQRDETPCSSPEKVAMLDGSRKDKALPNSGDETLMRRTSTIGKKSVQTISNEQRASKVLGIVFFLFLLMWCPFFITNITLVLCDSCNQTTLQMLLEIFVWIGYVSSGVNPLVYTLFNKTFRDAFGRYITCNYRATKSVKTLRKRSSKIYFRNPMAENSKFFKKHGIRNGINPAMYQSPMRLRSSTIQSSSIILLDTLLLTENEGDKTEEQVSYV
endpoint label: IC50 (nM)

[[record]]
molecule = "COc1cc(CC(C)N)c(OC)cc1I (racemic) [(±)DOI, reference compound]"
endpoint_label = "IC50"
quantitative_result = 4

